target: IL16_4, Q14005; assay: holdup assay; parameters: key: below the threshold = too weak to quantify, mostly under pKd 3.1 to 4; conditions: plain residues with an end cap or a label only (N-terminal biotin on a linker: ado-ado)
Sequence (Q14005 1229-1329): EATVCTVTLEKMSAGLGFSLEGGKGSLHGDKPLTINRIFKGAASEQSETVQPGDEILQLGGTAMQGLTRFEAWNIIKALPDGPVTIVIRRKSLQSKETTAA
Endpoint Name: pKd

[
  {
    "Binder": "DRIQSCLSDA [SBF1, O95248]",
    "Endpoint Name": "pKd",
    "Endpoint Value": "below the threshold"
  },
  {
    "Binder": "TISFTQTSQF [SLC1A1, P43005]",
    "Endpoint Name": "pKd",
    "Endpoint Value": "below the threshold"
  },
  {
    "Binder": "DDASLPVSDV [PLEKHA1, Q9HB21]",
    "Endpoint Name": "pKd",
    "Endpoint Value": "below the threshold"
  },
  {
    "Binder": "REEPDHSTEV [CCRL2, O00421]",
    "Endpoint Name": "pKd",
    "Endpoint Value": "below the threshold"
  },
  {
    "Binder": "KRPEMTSSSV [MUC3A, MUC3B, Q02505;Q9H195]",
    "Endpoint Name": "pKd",
    "Endpoint Value": 1.87
  }
]

Taken from paper PMC9482650.
